The reported measurements were obtained from ChEMBL document CHEMBL3576841.

assay: Plasma concentration in C57BL/6 mouse at 1 mg/kg, po administered as single dose measured after 30 mins by HPLC-MS/MS method; assay type: ADME, organism-based
Quantity Name: concentration at 0.5 h (ng/mL)

1: CC(C)CCn1ccnc1/C=C/C(=O)/C=C/c1nccn1CCC(C)C
2: Cc1nc(C(F)(F)F)c(/C=C/C(=O)/C=C/c2sc(C)nc2C(F)(F)F)s1
Ask: Kindly compare 1 with 2 and tell me which has the lower concentration at 0.5 h figure. Refer to your chosen item by its label in the answer.
Reply: 1

###

assay: Plasma concentration in C57BL/6 mouse at 1 mg/kg, po administered as single dose measured after 24 hrs by HPLC-MS/MS method; assay type: ADME, organism-based
Quantity Name: concentration at 24 h (ng/mL)

A: Cc1nc(C(F)(F)F)c(/C=C/C(=O)/C=C/c2sc(C)nc2C(F)(F)F)s1
B: CC(C)CCn1ccnc1/C=C/C(=O)/C=C/c1nccn1CCC(C)C
Ask: Kindly compare A with B and tell me which has the lower concentration at 24 h figure. Refer to your chosen item by its label in the answer.
Reply: B
